These data points were gathered from the supplement of paper PMC6555819.

System: RARa:RXR (NR concentration 270 nM, RXRa partner concentration 90 nM)
procedure_details: PBM binding z-score (relative to random genomic background probes); higher = stronger binding; sequences stand for … in GC…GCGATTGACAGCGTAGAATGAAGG
Output Criterion met for PBM binding z-score not less than 0.2; output Criterion not met otherwise.

Known results for sequences:
[
  {
    "sequence_content": "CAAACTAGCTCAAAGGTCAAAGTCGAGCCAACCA",
    "qualitative_label": "Criterion met"
  },
  {
    "sequence_content": "TGAATCAGGTTATAAGATCAGGGAACGTTGCAAA",
    "qualitative_label": "Criterion not met"
  },
  {
    "sequence_content": "TCGACTAGGTTACCAATGGGGCATTCAGCTTTCT",
    "qualitative_label": "Criterion met"
  },
  {
    "sequence_content": "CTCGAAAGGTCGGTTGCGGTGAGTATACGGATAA",
    "qualitative_label": "Criterion met"
  },
  {
    "sequence_content": "CCCGAAAGGTCGGTTGAGGTGAGTATACGGATAA",
    "qualitative_label": "Criterion met"
  },
  {
    "sequence_content": "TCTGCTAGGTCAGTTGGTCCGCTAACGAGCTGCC",
    "qualitative_label": "Criterion not met"
  }
]

Exercise: Decide: is the reported value of PBM binding z-score for AGAACGAGGGCACGCTGAGTTCATAGCAGAGTAG equal to or greater than 0.2?
Solution: Criterion met

Exercise: Decide: is the reported value of PBM binding z-score for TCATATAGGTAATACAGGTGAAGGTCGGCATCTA equal to or greater than 0.2?
Solution: Criterion met

Exercise: Decide: is the reported value of PBM binding z-score for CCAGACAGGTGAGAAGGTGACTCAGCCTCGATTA equal to or greater than 0.2?
Solution: Criterion met

Exercise: Decide: is the reported value of PBM binding z-score for CGAACTAGGTCTGAACAGGACAGTGAAGGATGAT equal to or greater than 0.2?
Solution: Criterion not met

Exercise: Decide: is the reported value of PBM binding z-score for AGAATGAGGTTATACGTAGATCAGGGGAGAAAGT equal to or greater than 0.2?
Solution: Criterion met

Exercise: Decide: is the reported value of PBM binding z-score for AATACAGGGTCACTACGCCAGAGTAGGTACGAAT equal to or greater than 0.2?
Solution: Criterion met

====

Tested on: FXR:RXRa (NR concentration 270 nM, RXRa partner concentration 90 nM)
procedure_details: PBM binding z-score (relative to random genomic background probes); higher = stronger binding; sequences stand for … in GC…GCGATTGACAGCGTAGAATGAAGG
Output MET for PBM binding z-score not less than 2; output NOT MET otherwise.

Known results for sequences:
[
  {
    "sequence_content": "CGTCAAAGTTCAAGGTAACGGAACAGAAAGCAGC",
    "qualitative_label": "MET"
  },
  {
    "sequence_content": "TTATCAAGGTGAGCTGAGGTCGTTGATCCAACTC",
    "qualitative_label": "NOT MET"
  },
  {
    "sequence_content": "GGAACGAGGGCAAAGTTGATCGCATCTGTCGACG",
    "qualitative_label": "NOT MET"
  },
  {
    "sequence_content": "CCAACTAGGTCAGAACAGGACAGTGAAGGATGAT",
    "qualitative_label": "NOT MET"
  },
  {
    "sequence_content": "CGAACTACGTCAGAACAGGACAGTGAAGGATGAT",
    "qualitative_label": "NOT MET"
  },
  {
    "sequence_content": "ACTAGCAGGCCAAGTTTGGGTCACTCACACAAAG",
    "qualitative_label": "NOT MET"
  }
]

Exercise: Decide: is the reported value of PBM binding z-score for CCTACTGGGCCAAAAAGGTCATTGAGGCCGATAA equal to or greater than 2?
Solution: MET

Exercise: Decide: is the reported value of PBM binding z-score for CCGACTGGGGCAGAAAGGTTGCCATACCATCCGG equal to or greater than 2?
Solution: NOT MET

Exercise: Decide: is the reported value of PBM binding z-score for GCTTGTAGATCAAGGGTAAGAAAGACTAAGCTAA equal to or greater than 2?
Solution: NOT MET

Exercise: Decide: is the reported value of PBM binding z-score for CGTCCAAGGTTATAGGAGGTCAGTGAAGACAGAT equal to or greater than 2?
Solution: MET

Exercise: Decide: is the reported value of PBM binding z-score for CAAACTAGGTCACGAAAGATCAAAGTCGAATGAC equal to or greater than 2?
Solution: MET

Exercise: Decide: is the reported value of PBM binding z-score for TCATATAGGTAAATGCTAGGTAAAAGTCCGATCT equal to or greater than 2?
Solution: NOT MET

Exercise: Decide: is the reported value of PBM binding z-score for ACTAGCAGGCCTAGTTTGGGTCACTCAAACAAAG equal to or greater than 2?
Solution: NOT MET

Exercise: Decide: is the reported value of PBM binding z-score for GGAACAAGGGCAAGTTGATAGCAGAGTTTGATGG equal to or greater than 2?
Solution: NOT MET

Exercise: Decide: is the reported value of PBM binding z-score for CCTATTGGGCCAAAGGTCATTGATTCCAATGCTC equal to or greater than 2?
Solution: MET

Exercise: Decide: is the reported value of PBM binding z-score for GCTTACGGGTCAGAGGTTATAGCATGAATAGAAT equal to or greater than 2?
Solution: MET

Exercise: Decide: is the reported value of PBM binding z-score for ACTATTAGTTGAGTCGAGGGCAACCGATAGGTTG equal to or greater than 2?
Solution: NOT MET

Exercise: Decide: is the reported value of PBM binding z-score for TCGAGTAGATTACCAATGGGGCATTCAGCTTTCT equal to or greater than 2?
Solution: NOT MET

Exercise: Decide: is the reported value of PBM binding z-score for TGTCAAAGTTCAAAAGTAACGTAAGTATCCACAC equal to or greater than 2?
Solution: MET

Exercise: Decide: is the reported value of PBM binding z-score for CCTAGCAGGCCAATCTGGGTCATTCAAGGCTTGA equal to or greater than 2?
Solution: NOT MET

Exercise: Decide: is the reported value of PBM binding z-score for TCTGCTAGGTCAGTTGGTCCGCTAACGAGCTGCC equal to or greater than 2?
Solution: NOT MET
